# Test system: MDA-MB-435
Outcome codes: 1 for active, -1 for inactive

>>> class_label("Fc1ccc(-c2c(-c3ccncc3)nc3n2CCS3)cc1")
-1
>>> class_label("COc1c/c(=C2\\C=c3ccccc3=N2)[nH]/c1=C\\c1[nH]c(C)cc1C")
1
>>> class_label("Cc1c(C)n(CCCN2CCN(C)CC2)c2ccc(Oc3cccc(C(=O)N4CCN(CCc5ccc(F)cc5)CC4)c3)cc12")
-1

---

# Tested on: HS 578T breast
# Experiment: NCI tumour cell line growth inhibition, 48 h; in the data active means GI50 below about 0.43 µM; inactive means the rest
Outcome codes: active, inactive

>>> class_label("O=c1oc2ccc(I)cc2c(=O)n1-c1ccc(Br)cc1F")
"active"
>>> class_label("O=C(NCCCCN1CCOCC1)c1cc2ccccc2o1")
"inactive"
>>> class_label("COc1ccc(Nc2nc3cc(N)cc(N)c3nc2-c2ccccc2)cc1")
"inactive"
>>> class_label("C=CN(C(=O)N1CCN(c2cc3c(cc2F)c(=O)c(C(=O)O)cn3C2CC2)CC1)c1nc(-c2ccc(OC)cc2)cs1")
"inactive"
>>> class_label("COc1ccc2ncn(-c3cc(O[C@H](C)c4ccccc4C(F)(F)F)c(C(N)=O)s3)c2c1")
"active"
>>> class_label("CC(C)C[C@H](NC(=O)CNC(=O)c1cc(Cl)ccc1Cl)B(O)O")
"active"
>>> class_label("COc1c/c(=C2\\C=c3ccccc3=N2)[nH]/c1=C\\c1[nH]c(C)cc1C")
"active"
>>> class_label("C[C@@H](Oc1cc(-n2cnc3ccc(OC4CCN(C)CC4)cc32)sc1C(N)=O)c1ccccc1Cl")
"active"

---

# Test system: COLO 205 colon
# Experiment: NCI tumour cell line growth inhibition, 48 h
Measured Endpoint: TGI

>>> assay_value("COc1cc(C(=O)NC2CCc3cc(OC)c(OC)c(OC)c3-c3ccc(OC)c(=O)cc32)cc(OC)c1OC (stereo not given)")
"230 nM"
>>> assay_value("Cc1c(-c2cnccn2)ssc1=S")
"> 100000 nM"
>>> assay_value("CCn1cc2c(=O)n3ncn(-c4ccc(Br)cc4)c3nc2n1")
"> 100000 nM"
>>> assay_value("CCOC1OC(COC(=O)C(C)(C)C)C(O)CC1n1cc(C)c(=O)[nH]c1=O (stereo not given)")
"> 100000 nM"
>>> assay_value("Cc1ccc(O)c(C(c2cccc(C(c3cc(C)ccc3O)c3cc(C)ccc3O)c2)c2cc(C)ccc2O)c1")
"2470 nM"

---

# Test system: OVCAR-3 ovarian
# Experiment: NCI tumour cell line growth inhibition, 48 h
Measured Endpoint: TGI

>>> assay_value("O=C(NCCCCN1CCOCC1)c1cc2ccccc2o1")
"> 100 µM"
>>> assay_value("CC(=O)O[C@@H]1C2CCC3C(CC[C@@]4(C)C3CC[C@@H]4C(C)N(C)C)[C@@]2(C)CC[C@@H]1NC(=O)C=C(C)C (stereo partly drawn)")
"7.42 µM"
>>> assay_value("COc1cc(OC)cc(OCc2nc3cc(C(F)(F)F)ccc3nc2-c2ccccc2)c1")
"> 100 µM"

---

# Test system: MDA-MB-435
Outcome codes: yes (active), no (inactive)

>>> class_label("Cc1cc2c(C(=O)NC[C@H](C)c3ccccc3)c(O)c(O)cc2c(O)c1-c1c(C)cc2c(C(=O)NC[C@H](C)c3ccccc3)c(O)c(O)cc2c1O")
"yes"
>>> class_label("O=c1oc2ccc(I)cc2c(=O)n1-c1ccc(Br)cc1F")
"no"
>>> class_label("COc1ccc2c(c1)C(=O)c1c-2n(CCCN(C)C)c(=O)c2ccccc12")
"no"
>>> class_label("OC(CNc1ccnc2cc(Cl)ccc12)CNc1ccnc2cc(Cl)ccc12")
"no"
>>> class_label("COc1ccc(/C=C\\c2cc(OC)c(OC)c(OC)c2)cc1OCC(=O)Nc1nc2ccc(F)cc2s1")
"yes"
>>> class_label("COc1ccc(C(=O)C(CN(C)C)CN(C)C)cc1")
"no"
>>> class_label("Oc1c(Cl)cc(Cl)c(Cl)c1CNCCNCc1c(O)c(Cl)cc(Cl)c1Cl")
"no"
>>> class_label("COc1cc(/C=C2\\CC3C4CC=C5C[C@@H](OC(C)=O)CC[C@]5(C)C4CC[C@]3(C)C2=O)ccc1OCCN1CCCCC1 (some centres undefined)")
"no"
>>> class_label("CCc1ccc(Oc2c(-c3ccc(OCc4ccc(Cl)cc4)cc3O)n[nH]c2C(F)(F)F)cc1")
"no"

Reference source: PubChem BioAssay (NCI)
